Assay: Average particle diameter, microscopic method (Heywood circle-corresponding diameter)
Assay type: physicochemical
Settings: 10 typical crystals on photograph, hydrochloride
Counter-ions that a name gives are not always drawn.
Endpoint name: Average particle diameter (μm)

(1) COc1cccc2c1C(=O)c1c(O)c3c(c(O)c1C2=O)C[C@@](O)(C(=O)CO)C[C@@H]3O[C@H]1C[C@H](N)[C@H](O)[C@H](C)O1 [Example 34, doxorubicin hydrochloride]
(2) COc1cccc2c1C(=O)c1c(O)c3c(c(O)c1C2=O)C[C@@](O)(C(=O)CO)C[C@@H]3O[C@H]1C[C@H](N)[C@H](O)[C@H](C)O1 [Example 47, doxorubicin hydrochloride]
(3) COc1cccc2c1C(=O)c1c(O)c3c(c(O)c1C2=O)C[C@@](O)(C(=O)CO)C[C@@H]3O[C@H]1C[C@H](N)[C@H](O)[C@H](C)O1 [Example 23, doxorubicin hydrochloride]
Exam item: Form: Sort by [Average particle diameter] Order [ ascending ] Output the labels ranked as instructed.
Marked response: 1, 3, 2
(1: 23 μm, 3: 39 μm, 2: 60 μm)

====

Assay: Average particle diameter, microscopic method (Heywood circle-corresponding diameter)
Type: physicochemical
Conditions: 10 typical crystals on photograph, hydrochloride
Structures can show the parent of a compound that is named as a salt.
Endpoint name: Average particle diameter (μm)

(I) COc1cccc2c1C(=O)c1c(O)c3c(c(O)c1C2=O)C[C@@](O)(C(=O)CO)C[C@@H]3O[C@H]1C[C@H](N)[C@H](O)[C@H](C)O1 [Example 40, doxorubicin hydrochloride]
(II) COc1cccc2c1C(=O)c1c(O)c3c(c(O)c1C2=O)C[C@@](O)(C(=O)CO)C[C@@H]3O[C@H]1C[C@H](N)[C@H](O)[C@H](C)O1 [Example 56, doxorubicin hydrochloride]
(III) COc1cccc2c1C(=O)c1c(O)c3c(c(O)c1C2=O)C[C@@](O)(C(=O)CO)C[C@@H]3O[C@H]1C[C@H](N)[C@H](O)[C@H](C)O1 [Example 51, doxorubicin hydrochloride]
Exam item: Form: Sort by [Average particle diameter] Order [ ascending ] Output the labels ranked as instructed.
Marked response: I, II, III
(I: 18 μm, II: 37 μm, III: 73 μm)

(P) COc1cccc2c1C(=O)c1c(O)c3c(c(O)c1C2=O)C[C@@](O)(C(=O)CO)C[C@@H]3O[C@H]1C[C@H](N)[C@H](O)[C@H](C)O1 [Example 32, doxorubicin hydrochloride]
(Q) COc1cccc2c1C(=O)c1c(O)c3c(c(O)c1C2=O)C[C@@](O)(C(=O)CO)C[C@@H]3O[C@H]1C[C@H](N)[C@H](O)[C@H](C)O1 [Example 48, doxorubicin hydrochloride]
Exam item: Endpoint returns the identifier whose Average particle diameter is numerically larger, either P or Q . Give the chosen item's label as your response.
Marked response: Q

====

Test: Average particle diameter, microscopic method (Heywood circle-corresponding diameter)
Format: physicochemical
Details: 10 typical crystals on photograph, hydrochloride
Counter-ions that a name gives are not always drawn.
Endpoint name: Average particle diameter (μm)

COc1cccc2c1C(=O)c1c(O)c3c(c(O)c1C2=O)C[C@@](O)(C(=O)CO)C[C@@H]3O[C@H]1C[C@H](N)[C@H](O)[C@H](C)O1 [Example 38, doxorubicin hydrochloride] | 28
COc1cccc2c1C(=O)c1c(O)c3c(c(O)c1C2=O)C[C@@](O)(C(=O)CO)C[C@@H]3O[C@H]1C[C@H](N)[C@H](O)[C@H](C)O1 [Example 55, doxorubicin hydrochloride] | 24
